Data credit: patent US8765779B2

- target.or.test.system: human 5-HT6 receptor (Homo sapiens, UniProt P50406)
- Construct: host or cells: CHO-K1 cells, stably transfected; membranes prepared in house
- Sequence (P50406 whole entry): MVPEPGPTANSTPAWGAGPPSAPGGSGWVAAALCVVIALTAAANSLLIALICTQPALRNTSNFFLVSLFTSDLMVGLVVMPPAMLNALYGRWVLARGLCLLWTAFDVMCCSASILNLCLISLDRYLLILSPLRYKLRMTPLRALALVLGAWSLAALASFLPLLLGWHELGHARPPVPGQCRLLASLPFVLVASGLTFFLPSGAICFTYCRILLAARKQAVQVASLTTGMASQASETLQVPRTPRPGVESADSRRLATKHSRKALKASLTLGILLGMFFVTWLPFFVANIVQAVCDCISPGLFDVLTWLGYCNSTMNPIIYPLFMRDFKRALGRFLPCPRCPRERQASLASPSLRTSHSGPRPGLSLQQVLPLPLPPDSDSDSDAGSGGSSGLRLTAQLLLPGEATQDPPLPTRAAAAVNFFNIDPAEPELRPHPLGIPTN
- assay.remarks: Human 5-HT6 Receptor Binding Assay ([3H]LSD displacement, scintillation beads)
- study.conditions: membranes of CHO-K1 cells with recombinant human 5-HT6, 4 nM [3H]LSD; Table 1, class symbols; read-out: h5-HT6 (Ki)
recorded.endpoint: Ki

Sample records with Ki:
molecule	Ki
CC(C)Oc1cccc(S(=O)(=O)c2ccc3c(c2)OC2CNCCC32)c1F (centres unmarked) [Example 481]	< 500 nM
O=S(=O)(c1ccc2c(c1)C1CCNCC1O2)c1ccc2ccccc2c1 (centres unmarked)	< 500 nM
O=S(=O)(c1cc(F)cc(Cl)c1)c1ccc2c3c(oc2c1)CNCC3	< 500 nM
O=S(=O)(c1cccc(C(F)(F)F)c1)c1ccc2c(c1)OC1CNCCC21 (centres unmarked) [Example 126]	< 500 nM
N#Cc1ccc(COc2cccc(S(=O)(=O)c3ccc4c(c3)OC3CNCCC43)c2)cc1 (centres unmarked)	< 500 nM
O=S(=O)(c1ccccc1)c1ccc2c3c(oc2c1)CNCC3	< 500 nM

Quick one: Ki of COc1cc(OC)cc(S(=O)(=O)c2ccc3c(c2)OC2CNCCC32C)c1 (centres unmarked) [Example 490] ?
< 500 nM

What would you report for O=S(=O)(c1cc(F)cc(OCC(F)(F)F)c1)c1ccc2c(c1)OC1CNCCC21 (centres unmarked) [Example 415] ?
< 500 nM

What would you report for Cc1c(S(=O)(=O)Oc2ccc3c(c2)C2(C)CCNCC2O3)sc2ccc(Cl)cc12 (centres unmarked) ?
500 to 1000 nM

What would you report for CN(C)C(=O)CC1(C)NCCc2c1oc1cc(S(=O)(=O)c3cccc(F)c3)ccc21 (racemic) [Example 40] ?
< 500 nM

What would you report for COc1c(F)cc(F)cc1S(=O)(=O)c1ccc2c3c(oc2c1)C(C)(C)NCC3 ?
< 500 nM

What would you report for CC(C)N1CCC2(C)c3cc(OS(=O)(=O)Cc4ccccc4)ccc3OC2C1 (centres unmarked) ?
> 1000 nM
